Target: UniProt:P28223
Sequence (P28223 whole entry): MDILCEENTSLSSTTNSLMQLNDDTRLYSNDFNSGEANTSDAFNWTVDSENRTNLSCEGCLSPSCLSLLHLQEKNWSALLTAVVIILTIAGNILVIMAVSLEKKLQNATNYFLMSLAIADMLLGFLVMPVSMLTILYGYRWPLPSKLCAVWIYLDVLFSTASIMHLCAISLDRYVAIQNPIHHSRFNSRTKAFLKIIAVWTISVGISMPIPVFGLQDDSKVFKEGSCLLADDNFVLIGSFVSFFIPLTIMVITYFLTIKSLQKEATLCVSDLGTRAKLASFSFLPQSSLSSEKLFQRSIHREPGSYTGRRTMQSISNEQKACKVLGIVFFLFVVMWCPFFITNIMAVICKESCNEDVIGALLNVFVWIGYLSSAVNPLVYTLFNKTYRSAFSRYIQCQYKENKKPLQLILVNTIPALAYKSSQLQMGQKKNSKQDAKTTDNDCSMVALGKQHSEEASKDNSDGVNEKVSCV
Experiment: Binding assay 5-HT2A (h), [3H]ketanserin, HEK-293 cells
Set-up: expressed in transfected cells; host or cells: HEK-293 cells
Conditions: read-out: 5-HT2A
In this section we review reported inhibition at 1 µM values for a set of compounds.
Write the answer as a number in %, unit excluded.

Below, each entry is followed by its recorded inhibition at 1 µM result.
Item O=S(=O)(NCCCN1CCN(c2nsc3ccccc23)CC1)c1ccc(C(F)(F)F)cc1 was tested on UniProt:P28223; the reported inhibition at 1 µM is 101

// compound O=S(=O)(NCCCN1CCN(c2nsc3ccccc23)CC1)c1cccs1 , assay UniProt:P28223, inhibition at 1 µM value: 102

Tested on UniProt:P28223, the item O=C1COc2c(cccc2N2CCN(CCCCNS(=O)(=O)c3ccc(F)cc3)CC2)N1 showed inhibition at 1 µM equal to 30

// moving on: another record for inhibition at 1 µM
Entry O=S(=O)(NCCCCN1CCC(c2noc3cc(F)ccc23)CC1)c1cccc(Cl)c1 : inhibition at 1 µM on UniProt:P28223 = 91
